B1: ATGL (PNPLA2, patatin-like phospholipase domain-containing protein 2), human, full length / CGI-58 (ABHD5, 1-acylglycerol-3-phosphate O-acyltransferase ABHD5), human (parent)
chain 1: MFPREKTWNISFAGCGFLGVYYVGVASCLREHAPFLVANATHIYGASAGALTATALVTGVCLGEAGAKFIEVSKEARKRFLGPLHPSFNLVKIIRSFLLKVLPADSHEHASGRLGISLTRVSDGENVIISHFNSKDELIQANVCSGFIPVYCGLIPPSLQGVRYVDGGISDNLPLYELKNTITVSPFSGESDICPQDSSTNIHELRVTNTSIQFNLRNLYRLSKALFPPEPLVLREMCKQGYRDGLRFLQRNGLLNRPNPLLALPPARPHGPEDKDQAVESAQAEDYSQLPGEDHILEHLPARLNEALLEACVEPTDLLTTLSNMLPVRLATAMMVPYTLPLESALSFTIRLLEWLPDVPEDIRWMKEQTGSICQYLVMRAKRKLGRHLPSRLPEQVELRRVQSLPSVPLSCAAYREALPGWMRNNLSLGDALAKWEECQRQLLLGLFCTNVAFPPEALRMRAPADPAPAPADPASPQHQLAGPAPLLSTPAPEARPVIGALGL
chain 2: MAAEEEEVDSADTGERSGWLTGWLPTWCPTSISHLKEAEEKMLKCVPCTYKKEPVRISNGNKIWTLKFSHNISNKTPLVLLHGFGGGLGLWALNFGDLCTNRPVYAFDLLGFGRSSRPRFDSDAEEVENQFVESIEEWRCALGLDKMILLGHNLGGFLAAAYSLKYPSRVNHLILVEPWGFPERPDLADQDRPIPVWIRALGAALTPFNPLAGLRIAGPFGLSLVQRLRPDFKRKYSSMFEDDTVTEYIYHCNVQTPSGETAFKNMTIPYGWAKRPMLQRIGKMHPDIPVSVIFGARSCIDGNSGTSIQSLRPHSYVKTIAILGAGHYVYADQPEEFNQKVKEICDTVD

- Variants of: B1
- Test Details: LUMIER: Protein A-ATGL variant and firefly luciferase-partner co-expressed in HEK293T, lysates immunoprecipitated on IgG-coated plates, co-precipitated partner measured as luciferase luminescence
- Stated Conditions: with CGI-58 (ABHD5, 1-acylglycerol-3-phosphate O-acyltransferase ABHD5), transient co-transfection, IgG-coated LUMITRAC plates, 2 h at 4 °C, three PBS washes, Bright-Glo luciferase reagent, triplicates per assay, two …, parent: 0.32, not graded, scale: log2 fold change of co-immunoprecipitated luminescence relative to wild-type ATGL within each experiment
Observation Type: screen value

>>> observed_measurement("chain 1 S106K")
-0.182

(A) chain 1 T41A
(B) chain 1 S87A
(C) chain 1 I70K
(D) chain 1 A434L
Ask | Would you mind ranking these variants by ascending screen value? Provide the ranking by listing each label in its place in the requested order.
Reply | C, B, D, A
(C: -0.355, B: -0.244, D: 0.0792, A: 0.269)
